- Tested on: Mus musculus
- measurement protocol: Anticonvulsant activity in albino mouse assessed as protection against subcutaneous pentylenetetrazole-induced death measured as mortality at 30 mg/kg, ip after 0.5 hr
- Type: functional
- condition label: sc, route intraperitoneal
property measured: mortality at 30 mg/kg (%)
One number for each entry, in %.

>>> readout_value("O=C1c2ccccc2C(=O)N1c1ccccc1[N+](=O)[O-]")
100
>>> readout_value("COc1ccc(N2C(=O)c3ccccc3C2=O)cc1")
100
>>> readout_value("O=C1c2ccccc2C(=O)N1c1cccc(Cl)c1")
100
>>> readout_value("O=C1c2ccccc2C(=O)N1c1cccc(F)c1")
100

Working through the 8 molecules below one at a time, give mortality at 30 mg/kg for each.
1. COc1cccc(N2C(=O)c3ccccc3C2=O)c1
2. O=C1c2ccccc2C(=O)N1c1ccccc1F
3. O=C1c2ccccc2C(=O)N1c1cccc([N+](=O)[O-])c1
4. O=C1c2ccccc2C(=O)N1c1ccc([N+](=O)[O-])cc1
5. O=C1c2ccccc2C(=O)N1c1ccc(Cl)cc1
6. COc1ccccc1N1C(=O)c2ccccc2C1=O
7. O=C1c2ccccc2C(=O)N1c1ccccc1Cl
8. O=C1c2ccccc2C(=O)N1c1ccc(F)cc1

Reply:
100
100
100
75
100
100
100
25

Task item: Which value of mortality at 30 mg/kg has been reported for O=C1c2ccccc2C(=O)N1c1ccccc1 [N-PHENYL-PHTHALIMIDE] in the records?
Reply: 100
